target: ULK1 (human); test: radiometric filter-binding kinase assay, Kinase HotSpot; conditions: compound 0.5 µM; ATP 10 µM
Reported residual activity values for the following compounds.
measured_attribute: residual activity (%)

>>> obs_value("O=c1cc(-c2cccc3c2Sc2ccccc2S3)oc(N2CCOCC2)c1")
91.9
>>> obs_value("O=C(Nc1ccc(Cl)cc1)c1ccccc1NCc1ccncc1")
86.9
>>> obs_value("C#Cc1cccc(Nc2ncnc3cc(OCCOC)c(OCCOC)cc23)c1")
113
>>> obs_value("COc1ccc(-c2cnc3c(-c4ccsc4)cnn3c2)cc1")
79
>>> obs_value("O=C1Cc2c([nH]c3ccc([N+](=O)[O-])cc23)-c2ccccc2N1")
85.1
>>> obs_value("CCN1/C(=C/C(C)=O)Sc2ccc(OC)cc21")
115
>>> obs_value("O=C1Nc2cc(Br)ccc2/C1=C1/Nc2ccccc2/C1=N\\O")
95.3
>>> obs_value("Oc1ccc(-c2nc(-c3ccc(F)cc3)c(-c3ccncc3)[nH]2)cc1")
89
>>> obs_value("O=c1cc(N2CCNCC2)oc2c(-c3ccccc3)cccc12")
107
>>> obs_value("CSc1nc(-c2ccc(F)cc2)c(-c2ccnc(NC(C)c3ccccc3)c2)[nH]1 (stereo unspecified)")
110
>>> obs_value("COc1cc2nccc(Oc3ccc(NC(=S)NC(=O)c4ccccc4C)cc3)c2cc1OC")
95
